Every entry's value here was drawn from the supplement of paper PMC10567573.

B1: RAD51 (parent)
chain: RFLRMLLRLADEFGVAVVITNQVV

Variants of: B1
Experiment: protein stability index of a GFP-peptide fusion (GPS, HEK-293T) (PSI 1-6); higher = more stable;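 further: lentivirally expressed fusions sorted by FACS into six bins by GFP to DsRed ratio, PSI derived from sequencing read proportions per bin multiplied by bin number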
Settings: c terminus: a fixed tail appended
Property: protein stability index

V24A    1.89
D11P    1.85
A10V    1.95
R1K    2.54
V18D    2.79
R1Q    1.79
V18T    3.38
V23S    2.56

Consider the additional variant presented here.
Quick note, protein stability index for T20G landed at 1.98
